- Experimental target: Serine/threonine-protein kinase TBK1 (Homo sapiens)
- Sequence (Q9UHD2 whole entry): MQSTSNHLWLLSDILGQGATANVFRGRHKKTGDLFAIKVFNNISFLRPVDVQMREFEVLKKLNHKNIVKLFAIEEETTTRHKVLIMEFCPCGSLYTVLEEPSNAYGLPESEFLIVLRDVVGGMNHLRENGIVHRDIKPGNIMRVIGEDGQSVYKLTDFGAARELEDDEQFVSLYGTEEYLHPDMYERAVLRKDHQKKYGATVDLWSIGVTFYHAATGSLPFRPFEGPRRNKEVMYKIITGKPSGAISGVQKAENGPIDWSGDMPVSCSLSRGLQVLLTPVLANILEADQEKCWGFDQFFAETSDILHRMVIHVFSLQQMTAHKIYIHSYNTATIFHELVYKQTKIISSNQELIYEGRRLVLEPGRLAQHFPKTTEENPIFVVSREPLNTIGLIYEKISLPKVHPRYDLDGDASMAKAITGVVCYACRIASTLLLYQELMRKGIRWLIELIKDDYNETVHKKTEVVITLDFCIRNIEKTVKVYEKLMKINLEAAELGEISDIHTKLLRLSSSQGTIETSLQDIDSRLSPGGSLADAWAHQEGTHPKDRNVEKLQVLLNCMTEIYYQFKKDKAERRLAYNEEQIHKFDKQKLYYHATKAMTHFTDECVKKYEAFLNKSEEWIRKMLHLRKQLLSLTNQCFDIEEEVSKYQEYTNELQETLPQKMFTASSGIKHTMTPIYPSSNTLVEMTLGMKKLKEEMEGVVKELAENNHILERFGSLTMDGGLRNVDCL

| Molecule | Experimental target | IC50 |
| --- | --- | --- |
| COc1nc(Nc2cc(-c3ccc(O[C@@H]4CCN(C(=O)[C@@H](C)O)CC4(F)F)c(C#N)c3)ncn2)ccc1N1CCN(C2COC2)CC1 [US11440899, Example 96] | Serine/threonine-protein kinase TBK1 (Homo sapiens) | < 100 nM |

###

- Experimental target: Inhibitor of nuclear factor kappa-B kinase subunit epsilon (Homo sapiens, UniProt Q14164)
- Sequence (Q14164 whole entry): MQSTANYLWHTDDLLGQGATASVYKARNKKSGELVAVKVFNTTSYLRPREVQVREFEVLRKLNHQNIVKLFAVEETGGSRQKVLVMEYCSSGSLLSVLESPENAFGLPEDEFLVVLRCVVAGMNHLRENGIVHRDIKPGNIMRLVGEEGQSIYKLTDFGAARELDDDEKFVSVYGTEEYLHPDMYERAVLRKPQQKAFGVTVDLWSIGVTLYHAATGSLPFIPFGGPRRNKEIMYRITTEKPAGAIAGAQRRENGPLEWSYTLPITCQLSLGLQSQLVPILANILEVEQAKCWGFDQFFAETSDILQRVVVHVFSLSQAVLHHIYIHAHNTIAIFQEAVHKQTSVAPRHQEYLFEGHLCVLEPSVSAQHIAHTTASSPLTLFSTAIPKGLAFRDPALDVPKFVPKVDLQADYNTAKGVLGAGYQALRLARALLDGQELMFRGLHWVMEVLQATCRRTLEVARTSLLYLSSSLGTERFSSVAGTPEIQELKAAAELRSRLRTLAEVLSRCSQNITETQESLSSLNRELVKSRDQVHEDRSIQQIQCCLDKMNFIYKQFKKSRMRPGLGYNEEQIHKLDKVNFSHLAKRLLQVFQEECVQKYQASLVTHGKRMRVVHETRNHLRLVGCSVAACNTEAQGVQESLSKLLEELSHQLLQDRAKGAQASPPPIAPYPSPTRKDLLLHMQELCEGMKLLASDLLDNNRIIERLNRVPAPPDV
- Assay: IKKe Biochemical Assay
- Method: Test compounds were transferred into Labcyte polypropylene 384 well plates (P055-25) and diluted to 3 mM using DMSO. 3 mM test compounds were dispensed using Labcyte ECHO dose response module into Greiner 784075 plates (columns 3-12 and 13-22, 10 point 1:4) so that high concentration was 30 uM final. 100 uM of a reference compound (1 uM final high concentration). […]

| Compound | Experimental target | IC50 |
| --- | --- | --- |
| COc1nc(Nc2cc(-c3ccc(O[C@@H]4CCN(C(=O)[C@@H](C)O)CC4(F)F)c(C#N)c3)ncn2)ccc1N1CCN(C2COC2)CC1 [US11440899, Example 96] | Inhibitor of nuclear factor kappa-B kinase subunit epsilon (Homo sapiens, UniProt Q14164) | < 100 nM |
